Data origin, for the record: paper PMC11111408

Test: Mouse blood and tumour pharmacokinetics in NCI-H441 tumour bearing mice
Conditions: female, BALB/c nude, mouse, whole blood, po, 10 mg/kg

# compound, AUC(0-t) (ng·h/mL)
measured = [
    ("CCn1c(-c2cc(N3CCN(C4CC4)CC3)cnc2[C@H](C)OC)c2c3cc(ccc31)-c1csc(n1)C[C@H](NC(=O)[C@H]1[C@@H]3COC[C@@H]31)C(=O)N1CCC[C@H](N1)C(=O)OCC(C)(C)C2 [RMC-7977]", 7240),
]

###

Test: Mouse blood and tumour pharmacokinetics in NCI-H441 tumour bearing mice
Settings: female, BALB/c nude, mouse, whole blood, po, 10 mg/kg
endpoint.label: half-life (h)

# smiles.structure, measurement.unit, reported.value
data = [
    ("CCn1c(-c2cc(N3CCN(C4CC4)CC3)cnc2[C@H](C)OC)c2c3cc(ccc31)-c1csc(n1)C[C@H](NC(=O)[C@H]1[C@@H]3COC[C@@H]31)C(=O)N1CCC[C@H](N1)C(=O)OCC(C)(C)C2", "h", 2.78),
]

###

Tested on: Capan-1 cells
Experiment: Cell proliferation (CTG)
Assay type: cell-based
Details: Homo sapiens; Capan-1, CTG; (95% CI)
We label by threshold. Values of EC50 strictly beneath 100 nM are true (1). Values of 100 nM and up are false (0).

# smiles.structure, assigned.category
measured = [
    ("CCn1c(-c2cccnc2[C@H](C)OC)c2c3cc(ccc31)-c1csc(n1)C[C@H](NC(=O)[C@H](C(C)C)N(C)C(C)=O)C(=O)N1CCC[C@H](N1)C(=O)OCC(C)(C)C2", "false (0)"),
    ("CCn1c(-c2cccnc2[C@H](C)OC)c2c3cc(ccc31)-c1csc(n1)C[C@H](NC(=O)[C@H]1CCO1)C(=O)N1CCC[C@H](N1)C(=O)OCC(C)(C)C2", "false (0)"),
    ("CCn1c(-c2cc(N3CCN(C)CC3)cnc2[C@H](C)OC)c2c3cc(ccc31)-c1csc(n1)C[C@H](NC(=O)[C@H]1CCO1)C(=O)N1CCC[C@H](N1)C(=O)OCC(C)(C)C2", "true (1)"),
    ("CCn1c(-c2cccnc2[C@H](C)OC)c2c3cc(ccc31)-c1cccc(c1)C[C@H](NC(=O)[C@H](C(C)C)N(C)C(=O)[C@H]1CCN(C(C)=O)C1)C(=O)N1CCC[C@H](N1)C(=O)OCC(C)(C)C2", "false (0)"),
    ("CCn1c(-c2cc(N3CCN(C4CC4)CC3)cnc2[C@H](C)OC)c2c3cc(ccc31)-c1csc(n1)C[C@H](NC(=O)[C@H]1[C@@H]3COC[C@@H]31)C(=O)N1CCC[C@H](N1)C(=O)OCC(C)(C)C2", "true (1)"),
]

###

Assay: Mouse blood and tumour pharmacokinetics in NCI-H441 tumour bearing mice
Details: female, BALB/c nude, mouse, tumour, po, 10 mg/kg

# smiles.structure, AUC(0-t)
rows = [
    ("CCn1c(-c2cc(N3CCN(C4CC4)CC3)cnc2[C@H](C)OC)c2c3cc(ccc31)-c1csc(n1)C[C@H](NC(=O)[C@H]1[C@@H]3COC[C@@H]31)C(=O)N1CCC[C@H](N1)C(=O)OCC(C)(C)C2", "24300 ng·h/mL"),
]

###

Assay: Mouse blood and tumour pharmacokinetics in NCI-H441 tumour bearing mice
Conditions: female, BALB/c nude, mouse, tumour, po, 10 mg/kg

# smiles.structure, half-life (h)
measured = [
    ("CCn1c(-c2cc(N3CCN(C4CC4)CC3)cnc2[C@H](C)OC)c2c3cc(ccc31)-c1csc(n1)C[C@H](NC(=O)[C@H]1[C@@H]3COC[C@@H]31)C(=O)N1CCC[C@H](N1)C(=O)OCC(C)(C)C2", 18.3),
]
